assayed_target: P2X7 (UniProt Q99572)
Sequence (Q99572 1-595): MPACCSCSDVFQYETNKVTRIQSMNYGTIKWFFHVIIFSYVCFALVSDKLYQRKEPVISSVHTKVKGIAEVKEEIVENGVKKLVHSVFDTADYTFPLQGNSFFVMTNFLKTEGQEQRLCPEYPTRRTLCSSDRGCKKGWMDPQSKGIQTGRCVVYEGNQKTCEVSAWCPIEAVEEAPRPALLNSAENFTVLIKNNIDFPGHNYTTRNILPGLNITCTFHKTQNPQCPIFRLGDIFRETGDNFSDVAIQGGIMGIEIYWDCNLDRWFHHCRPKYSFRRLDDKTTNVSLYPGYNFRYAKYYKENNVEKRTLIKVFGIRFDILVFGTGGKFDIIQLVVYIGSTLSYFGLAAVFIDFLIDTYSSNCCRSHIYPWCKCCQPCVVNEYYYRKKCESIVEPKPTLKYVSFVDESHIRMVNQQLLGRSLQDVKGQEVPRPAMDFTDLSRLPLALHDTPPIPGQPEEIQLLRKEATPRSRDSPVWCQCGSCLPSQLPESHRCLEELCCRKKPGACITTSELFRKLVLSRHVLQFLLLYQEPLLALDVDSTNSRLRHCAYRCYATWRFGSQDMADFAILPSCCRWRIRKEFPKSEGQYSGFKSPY
experimental_protocol: P2X7 activity of Table 1
Assay type: cell-based
condition_context: pIC50 values for P2X7
experimental_readout: pIC50

{"chem_smiles": "Cc1cc(-c2ccc(C)c(NC(=O)C3=CNC(=O)C[C@H]3c3ccc(F)cc3)c2)no1", "assayed_target": "P2X7 (UniProt Q99572)", "experimental_readout": "pIC50", "recorded_result": 7.183}
{"chem_smiles": "Cc1cc(-c2ccc(C)c(NC(=O)C3=CNC(=O)C[C@H]3c3ccc(F)cc3)c2)on1", "assayed_target": "P2X7 (UniProt Q99572)", "experimental_readout": "pIC50", "recorded_result": 7.265}
{"chem_smiles": "Cc1ccc(-c2cc(C)n(C[C@H](C)O)n2)cc1NC(=O)C1=CN(C)C(=O)C[C@H]1c1ccc(F)cc1", "assayed_target": "P2X7 (UniProt Q99572)", "experimental_readout": "pIC50", "recorded_result": 7.47}
{"chem_smiles": "Cc1ccc(-c2ccc[nH]c2=O)cc1NC(=O)C1=CN(C)C(=O)C[C@H]1c1ccc(F)cc1", "assayed_target": "P2X7 (UniProt Q99572)", "experimental_readout": "pIC50", "recorded_result": 7.565}

###

assayed_target: P2X7 (UniProt Q99572)
experimental_protocol: P2X7 activity of Table 1
Assay type: cell-based
condition_context: pIC50 values for P2X7
Method: Stock solutions of compounds were prepared from powders as a 10 mM DMSO stock solution. These solutions were stored at RT during the two week period of these experiments to prevent freeze-thaw of the DMSO stocks. The DMSO stocks were added to the appropriate assay buffer at a concentration of 10 μM, and then diluted serially to the final concentrations that were tested. […]
experimental_readout: pIC50

{"compound": "CCCn1nccc1-c1ccc(C)c(NC(=O)C2=CNC(=O)C[C@H]2c2ccc(F)cc2)c1 [Compound 32]", "pIC50": 6.885}
{"compound": "CCn1c(C)nnc1-c1ccc(C)c(NC(=O)C2=CNC(=O)C[C@H]2c2ccc(F)cc2)c1 [Compound 60]", "pIC50": 6.535}
{"compound": "Cc1ccc(-c2ccc(=O)[nH]n2)cc1NC(=O)C1=CNC(=O)C[C@H]1c1ccc(F)cc1 [Compound 99]", "pIC50": 7.515}
{"compound": "Cc1ccc(-c2ccnn(C)c2=O)cc1NC(=O)C1=CN(C)C(=O)C[C@H]1c1cccc(F)c1 [Compound 86]", "pIC50": 7.62}
{"compound": "Cc1cnc(-c2ccc(C)c(NC(=O)C3=CNC(=O)C[C@H]3c3ccc(F)cc3)c2)cn1 [Compound 45]", "pIC50": 7.01}
{"compound": "Cc1ccc(-c2cc(C)n(CCO)n2)cc1NC(=O)C1=CNC(=O)C[C@H]1c1ccc(F)cc1 [Compound 2]", "pIC50": 7.735}
{"compound": "Cc1ccc(=O)n(-c2ccc(C)c(NC(=O)C3=CN(C)C(=O)C[C@H]3c3ccc(F)cc3)c2)c1 [Compound 140]", "pIC50": 7.18}

###

assayed_target: P2X7 (UniProt Q99572)
Sequence (Q99572 1-595): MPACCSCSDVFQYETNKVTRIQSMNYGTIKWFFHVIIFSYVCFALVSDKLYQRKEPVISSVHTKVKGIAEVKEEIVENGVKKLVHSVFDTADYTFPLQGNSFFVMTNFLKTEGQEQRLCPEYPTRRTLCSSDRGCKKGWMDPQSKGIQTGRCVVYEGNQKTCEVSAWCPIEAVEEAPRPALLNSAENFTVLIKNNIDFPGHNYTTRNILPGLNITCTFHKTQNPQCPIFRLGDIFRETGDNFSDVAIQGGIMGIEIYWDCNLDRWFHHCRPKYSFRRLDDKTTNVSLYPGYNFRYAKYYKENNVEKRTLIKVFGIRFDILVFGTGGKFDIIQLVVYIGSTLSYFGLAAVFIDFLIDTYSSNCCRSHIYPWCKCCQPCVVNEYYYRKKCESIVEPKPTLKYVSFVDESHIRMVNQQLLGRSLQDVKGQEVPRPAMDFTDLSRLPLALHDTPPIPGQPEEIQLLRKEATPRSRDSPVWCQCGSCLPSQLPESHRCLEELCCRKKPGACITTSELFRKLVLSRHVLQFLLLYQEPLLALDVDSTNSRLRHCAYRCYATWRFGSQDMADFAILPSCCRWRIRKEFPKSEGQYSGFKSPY
experimental_protocol: P2X7 activity of Table 1
Assay type: cell-based
condition_context: pIC50 values for P2X7
experimental_readout: pIC50

{"compound": "Cc1ccc(-n2cccc2)cc1NC(=O)C1=CNC(=O)CC1c1cccc(F)c1 (stereo not shown) [Compound 1]", "pIC50": 6.985}
{"compound": "COC[C@H](O)Cn1nc(-c2ccc(C)c(NC(=O)C3=CN(C)C(=O)C[C@H]3c3ccc(F)cc3)c2)ccc1=O [Compound 126]", "pIC50": 7.615}
{"compound": "Cc1ccc(-n2ncc(=O)n(C)c2=O)cc1NC(=O)C1=CNC(=O)C[C@H]1c1ccc(F)cc1 [Compound 37]", "pIC50": 7.76}
{"compound": "Cc1ccc(-c2ccc(=O)n(CCO)n2)cc1NC(=O)C1=CN(C)C(=O)C[C@H]1c1ccc(F)cc1 [Compound 134]", "pIC50": 6.42}

###

assayed_target: P2X7 (UniProt Q99572)
experimental_protocol: P2X7 activity of Table 1
Format: cell-based
condition_context: pIC50 values for P2X7
experimental_readout: pIC50

{"compound": "Cc1ccc(-c2cc(C)n(C)n2)cc1NC(=O)C1=CNC(=O)C[C@H]1c1ccc(F)cc1 [Compound 4]", "experimental_readout": "pIC50", "recorded_result": 7.715}
{"compound": "Cc1cc(-c2ccc(F)c(NC(=O)C3=CN(C)C(=O)C[C@H]3c3ccc(F)cc3)c2)n[nH]1 [Compound 137]", "experimental_readout": "pIC50", "recorded_result": 6.39}
{"compound": "COC[C@@H](O)Cn1nc(-c2ccc(C)c(NC(=O)C3=CN(C)C(=O)C[C@H]3c3ccc(F)cc3)c2)cc1C [Compound 92]", "experimental_readout": "pIC50", "recorded_result": 6.615}
{"compound": "CN1C=C(C(=O)Nc2cc(-c3ccn[nH]c3=O)ccc2F)[C@H](c2ccc(F)cc2)CC1=O [Compound 123]", "experimental_readout": "pIC50", "recorded_result": 7.58}
{"compound": "Cc1cc(-c2cc(NC(=O)C3=CNC(=O)C[C@H]3c3ccc(F)cc3)c(C)cc2F)n[nH]1 [Compound 41]", "experimental_readout": "pIC50", "recorded_result": 8.048}
{"compound": "Cc1ccc(-c2ccn(C)n2)cc1NC(=O)C1=CNC(=O)C[C@H]1c1ccc(F)cc1 [Compound 65]", "experimental_readout": "pIC50", "recorded_result": 7.705}
{"compound": "Cc1cnn(-c2ccc(C)c(NC(=O)C3=CN(C)C(=O)C[C@H]3c3ccc(F)cc3)c2)c(=O)c1 [Compound 136]", "experimental_readout": "pIC50", "recorded_result": 7.515}

###

assayed_target: P2X7 (UniProt Q99572)
experimental_protocol: P2X7 activity of Table 1
Assay type: cell-based
condition_context: pIC50 values for P2X7
experimental_readout: pIC50

{"chem_smiles": "Cc1cc(-c2ccc(C)c(NC(=O)C3=CNC(=O)C[C@H]3c3ccc(F)cc3)c2)n(C)n1", "experimental_readout": "pIC50", "recorded_result": 6.525}
{"chem_smiles": "Cc1ccc(-c2nnc(C)n2C)cc1NC(=O)C1=CNC(=O)C[C@H]1c1ccc(F)cc1", "experimental_readout": "pIC50", "recorded_result": 7.78}
{"chem_smiles": "Cc1ccc(-n2ccc(=O)n(C)c2=O)cc1NC(=O)C1=CNC(=O)C[C@H]1c1ccc(F)cc1", "experimental_readout": "pIC50", "recorded_result": 7.24}
{"chem_smiles": "Cc1ccc(-n2cc(C)c(=O)[nH]c2=O)cc1NC(=O)C1=CN(C)C(=O)C[C@H]1c1ccc(F)cc1", "experimental_readout": "pIC50", "recorded_result": 7.945}
{"chem_smiles": "Cc1ncn(-c2ccc(C)c(NC(=O)C3=CNC(=O)C[C@H]3c3ccc(F)cc3)c2)n1", "experimental_readout": "pIC50", "recorded_result": 6.28}
{"chem_smiles": "Cc1ccc(-c2cc(C)n(CCO)n2)cc1NC(=O)C1=CN(C)C(=O)C[C@H]1c1ccc(F)cc1", "experimental_readout": "pIC50", "recorded_result": 7.46}
{"chem_smiles": "Cc1ccc(-c2ccc(=O)n(CCO)n2)cc1NC(=O)C1=CNC(=O)C[C@H]1c1ccc(F)cc1", "experimental_readout": "pIC50", "recorded_result": 7.385}
{"chem_smiles": "Cc1cnn(-c2cc(NC(=O)C3=CN(C)C(=O)C[C@H]3c3ccc(F)cc3)c(C)cc2F)c(=O)c1", "experimental_readout": "pIC50", "recorded_result": 7.265}
{"chem_smiles": "Cc1ccc(-c2nnnn2C)cc1NC(=O)C1=CNC(=O)C[C@H]1c1ccc(F)cc1", "experimental_readout": "pIC50", "recorded_result": 6.1767}
{"chem_smiles": "Cc1ccc(-c2ccnn2C)cc1NC(=O)C1=CNC(=O)C[C@H]1c1ccc(F)cc1", "experimental_readout": "pIC50", "recorded_result": 7.033}
{"chem_smiles": "Cc1nc(-c2ccc(C)c(NC(=O)C3=CNC(=O)C[C@H]3c3ccc(F)cc3)c2)cs1", "experimental_readout": "pIC50", "recorded_result": 7.87}
{"chem_smiles": "Cc1ccc(-c2ccc(=O)n(C)n2)cc1NC(=O)C1=CNC(=O)C[C@H]1c1ccc(F)cc1", "experimental_readout": "pIC50", "recorded_result": 6.52}
{"chem_smiles": "CN1C=C(C(=O)Nc2cc(-c3ccnn(C)c3=O)ccc2F)[C@H](c2ccc(F)cc2)CC1=O", "experimental_readout": "pIC50", "recorded_result": 7.36}
{"chem_smiles": "Cc1ccc(-c2cncnc2)cc1NC(=O)C1=CNC(=O)C[C@H]1c1ccc(F)cc1", "experimental_readout": "pIC50", "recorded_result": 6.425}
{"chem_smiles": "Cc1ccc(-c2ccnn(C)c2=O)cc1NC(=O)C1=CN(CC(=O)N(C)C)C(=O)C[C@H]1c1ccc(F)cc1", "experimental_readout": "pIC50", "recorded_result": 7.195}
{"chem_smiles": "Cc1ccc(-c2nnn(C)n2)cc1NC(=O)C1=CNC(=O)C[C@H]1c1ccc(F)cc1", "experimental_readout": "pIC50", "recorded_result": 6.21}
